tested on: 874868-142-R-J2-PDC complex spheroids, growth % test/control; experiment: Anticancer human tumor 874868-142-R-J2-PDC patient-derived head and neck squamous carcinoma cell line growth inhibition [CLK]; settings: second compound 10 µM; first compound 10 µM; active = viability on the fitted dose curve at most 10% of control; inactive = the rest;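 note: spheroids exposed to the compounds for 7 days; 100% = DMSO vehicle control viability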
Valid outcomes are listed here; reply with one: 1 for active, 0 for inactive

See these solved cases before continuing.
molecule | assigned_category
CC(=O)O[C@H]1C(=O)[C@@]2(C)[C@H]([C@H](OC(=O)c3ccccc3)[C@]3(O)C[C@H](OC(=O)[C@H](O)[C@@H](NC(=O)c4ccccc4)c4ccccc4)C(C)=C1C3(C)C)[C@]1(OC(C)=O)CO[C@@H]1C[C@@H]2O + CNC(=O)c1ccc(Nc2nc(OC3CCCC3)c3c(-c4ccc5nc(C)oc5c4)c[nH]c3n2)c(OC)c1 | 0
COc1cccc2c1C(=O)c1c(O)c3c(c(O)c1C2=O)CC(O)(C(=O)CO)CC3OC1CC(N)C(O)C(C)O1 (stereo not given) + CN1CCN(c2cc(C(=O)Nc3cc4cc(-c5cnn(C)c5)ccc4cn3)ccn2)CC1 | 1
COc1ccc([C@@H](O)c2cc(-c3ncnc4cc(N5CCOCC5)ccc34)c(F)cc2Cl)nn1 + CNC(=O)c1ccc(Nc2nc(OC3CCCC3)c3c(-c4ccc5nc(C)oc5c4)c[nH]c3n2)c(OC)c1 | 0

Returns: the outcome recorded for CC1COCCN1c1cc(C2(S(C)(=N)=O)CC2)nc(-c2ccnc3[nH]ccc23)n1 (stereo not given) + CNC(=O)c1ccc(Nc2nc(OC3CCCC3)c3c(-c4ccc5nc(C)oc5c4)c[nH]c3n2)c(OC)c1 in this assay.
0

Returns: the outcome recorded for CC(CO)NC(=O)c1cc(-c2ccc(Cl)cc2)nn(-c2cnn(C)c2)c1=O (stereo not given) + CNC(=O)c1ccc(Nc2nc(OC3CCCC3)c3c(-c4ccc5nc(C)oc5c4)c[nH]c3n2)c(OC)c1 in this assay.
0

Returns: the outcome recorded for O=c1[nH]cc(F)c(=O)[nH]1 + CNC(=O)c1ccc(Nc2nc(OC3CCCC3)c3c(-c4ccc5nc(C)oc5c4)c[nH]c3n2)c(OC)c1 in this assay.
0

Returns: the outcome recorded for CCCS(=O)(=O)Nc1ccc(F)c(C(=O)c2c[nH]c3ncc(-c4ccc(Cl)cc4)cc23)c1F + CNC(=O)c1ccc(Nc2nc(OC3CCCC3)c3c(-c4ccc5nc(C)oc5c4)c[nH]c3n2)c(OC)c1 in this assay.
0

Returns: the outcome recorded for CC1(C)CCC(CN2CCN(c3ccc(C(=O)NS(=O)(=O)c4ccc(NCC5CCOCC5)c([N+](=O)[O-])c4)c(Oc4cnc5[nH]ccc5c4)c3)CC2)=C(c2ccc(Cl)cc2)C1 + CNC(=O)c1ccc(Nc2nc(OC3CCCC3)c3c(-c4ccc5nc(C)oc5c4)c[nH]c3n2)c(OC)c1 in this assay.
0

Returns: the outcome recorded for O=c1[nH]cc(F)c(=O)[nH]1 + CN1CCN(c2cc(C(=O)Nc3cc4cc(-c5cnn(C)c5)ccc4cn3)ccn2)CC1 in this assay.
1

Returns: the outcome recorded for C=C(F)C(=O)N1CCN(c2nc(OCC3CCCN3C)nc3c2CCN(c2cccc4cccc(Cl)c24)C3)CC1CC#N (stereo not given) + CN1CCN(c2cc(C(=O)Nc3cc4cc(-c5cnn(C)c5)ccc4cn3)ccn2)CC1 in this assay.
1

Returns: the outcome recorded for O=C(c1cc(Cc2n[nH]c(=O)c3ccccc23)ccc1F)N1CCN(C(=O)C2CC2)CC1 + CNC(=O)c1ccc(Nc2nc(OC3CCCC3)c3c(-c4ccc5nc(C)oc5c4)c[nH]c3n2)c(OC)c1 in this assay.
0

Returns: the outcome recorded for CCCS(=O)(=O)Nc1ccc(F)c(C(=O)c2c[nH]c3ncc(-c4ccc(Cl)cc4)cc23)c1F + CN1CCN(c2cc(C(=O)Nc3cc4cc(-c5cnn(C)c5)ccc4cn3)ccn2)CC1 in this assay.
1
